// reported LD50 for each item listed
Test: in vivo
Respond numerically; units are mg/kg and should not be typed.

Some solved cases for reference:
CC(C)NC(=O)C(F)(F)Cn1cnc([N+](=O)[O-])n1 = 600
O=C(NCCO)C(F)(F)Cn1cnc([N+](=O)[O-])n1 = 1600
O=[N+]([O-])c1ncn(CC(O)CF)n1 (stereo not drawn) = 700

Exercise: Name the recorded LD50 of the item CC(O)CNC(=O)C(F)(F)Cn1cnc([N+](=O)[O-])n1 (stereo not drawn) in your answer.
Solution: 1200

Exercise: Name the recorded LD50 of the item `NC(=O)C(F)(F)Cn1cnc([N+](=O)[O-])n1` in your answer.
Solution: 700

Exercise: Name the recorded LD50 of the item `NC(=O)CCNC(=O)C(F)(F)Cn1cnc([N+](=O)[O-])n1` in your answer.
Solution: 1500

Exercise: Name the recorded LD50 of the item O=[N+]([O-])c1ncn(CC(F)COCC(O)CO)n1 (stereo not drawn) in your answer.
Solution: 1600

The reported numbers originate from patent US4927941A.
